Record form. Attribute: melting point. Fill in for each entry.

Query: For the compound `CNc1nc(-c2cccc(C)c2)c(-c2ccnc(NC3CCCC3)c2)s1` , what melting point is on record?
Result: 170 to 172 °C

Query: Same question, `CCc1nc(-c2cccc(C(F)(F)F)c2)c(-c2ccnc(NC(C)=O)c2)s1` this time
Result: 146 to 147 °C

Query: Same question, `CCc1nc(-c2cccc(F)c2)c(-c2ccnc(N)c2)s1` this time
Result: 153 to 154 °C

Query: Same question, `Cc1cccc(-c2nc(-c3ccc(S(C)(=O)=O)cc3)sc2-c2ccnc(N3CCCC3)c2)c1` this time
Result: 199 to 201 °C

---

Record form. Attribute: melting point. Fill in for each entry.

Query: For the compound `CCC(=O)Nc1cc(-c2sc(CC)nc2-c2ccc(Cl)cc2)ccn1` , what melting point is on record?
Result: 152 to 153 °C

Query: Same question, `CSCc1nc(-c2cccc(Cl)c2)c(-c2ccnc(N)c2)s1` this time
Result: 111 to 112 °C

Query: Same question, `Cc1cccc(-c2nc(-c3ccc(F)cc3)sc2-c2ccnc(C)c2)c1` this time
Result: 89 to 91 °C

Query: Same question, `Cc1cccc(-c2nc(N)sc2-c2ccnc(C)c2)c1` this time
Result: 205 to 206 °C

Query: Same question, `Cc1cccc(-c2nc(NC(=O)Nc3ccccc3)sc2-c2ccnc(C)c2)c1` this time
Result: 168 to 169 °C

Query: Same question, `Cc1cccc(-c2nc(-c3ccc(F)cc3)sc2-c2ccnc(N)c2)c1` this time
Result: 160 to 162 °C

Query: Same question, `Cc1cccc(-c2nc(-c3ccc(Cl)cc3)sc2-c2ccnc(C)c2)c1` this time
Result: 104 to 105 °C

Query: Same question, `CSc1ccc(-c2nc(-c3cccc(Cl)c3)c(-c3ccnc(NC(=O)C(C)(C)C)c3)s2)cc1` this time
Result: 119 to 120 °C

Query: Same question, `Cc1cccc(-c2nc(-c3ccc(S(C)(=O)=O)cc3)sc2-c2ccnc(NC3CCCCC3)c2)c1` this time
Result: 197 to 199 °C

Query: Same question, `CCOC(=O)c1nc(-c2cccc(C)c2)c(-c2ccnc(N)c2)s1` this time
Result: 147 to 148 °C

Query: Same question, `CNc1nc(-c2cccc(C)c2)c(-c2ccnc(F)c2)s1` this time
Result: 186 to 187 °C

Query: Same question, `Cc1cccc(-c2nc(NC(=O)NCCCl)sc2-c2ccnc(C)c2)c1` this time
Result: 149 to 151 °C

Query: Same question, `Cc1cccc(-c2nc(N3CCNC3=O)sc2-c2ccnc(C)c2)c1` this time
Result: 200 to 201 °C

Query: Same question, CCC(=O)Nc1cc(-c2sc(C(C)O)nc2-c2cccc(Cl)c2)ccn1 (centres unmarked) this time
Result: 131 to 132 °C

Query: Same question, `CCc1nc(-c2cccc(Cl)c2)c(-c2ccnc(NC(C)=O)c2)s1` this time
Result: 149 to 150 °C

Query: Same question, `Cc1cccc(-c2nc(NC(=O)c3ccc(C)nc3)sc2-c2ccnc(NC3CCCC3)c2)c1` this time
Result: 213 to 214 °C

Query: Same question, `CSc1ccc(-c2nc(-c3cccc(C)c3)c(-c3ccnc(C)c3)s2)cc1` this time
Result: 119 to 122 °C
